# assayText: Permeability across Caco-2 monolayers
# Assay type: in vitro ADME
# reportedConditions: human, Caco-2; 260 μM; n = 3, ±S.D.
assayEndpoint: Papp A→B at 260 μM (×10⁻⁶ cm/s)
Reply with just the number (in ×10⁻⁶ cm/s).

Input line: Quickly give me recorded Papp A→B at 260 μM for `O=C(c1cc(Cc2n[nH]c(=O)c3ccccc23)ccc1F)N1CCN(C(=O)C2CC2)CC1`
Output line: 7.75

====

# assayText: Solubility in water and pH buffered solutions
# Assay type: physicochemical
# reportedConditions: aqueous buffer, thermodynamic from solid; 0.1M NaOH; 1 hr; pH 12.5
assayEndpoint: solubility at 1 hr (µg/mL)
# number only, unit µg/mL dropped from output

Input line: Please report the measured solubility at 1 hr for O=C(c1cc(Cc2n[nH]c(=O)c3ccccc23)ccc1F)N1CCN(C(=O)C2CC2)CC1 [Compound 1 (Form A)]
Output line: 650

====

# assayText: Permeability across Caco-2 monolayers
# Format: in vitro ADME
# reportedConditions: human, Caco-2; marker compound, concentration not given; n = 3, ±S.D.
What Papp A→B was measured for each of the following?
Provide the reading as a plain figure in ×10⁻⁶ cm/s.

Input line: Entry CC(C)NCC(O)COc1cccc2ccccc12 (centres unmarked) [Propranolol, propranolol, reference compound] needs its Papp A→B filled in; supply it.
Output line: 20

Input line: Name the recorded Papp A→B of the compound listed here: C[C@H]1O[C@@H](O[C@H]2[C@@H](O)C[C@H](O[C@H]3[C@@H](O)C[C@H](O[C@H]4CC[C@@]5(C)[C@H](CC[C@@H]6[C@@H]5C[C@@H](O)[C@]5(C)[C@@H](C7=CC(=O)OC7)CC[C@]65O)C4)O[C@@H]3C)O[C@@H]2C)C[C@H](O)[C@@H]1O [Digoxin, digoxin, reference compound]
Output line: 1.34

====

# assayText: Solubility in water and pH buffered solutions
# Type: physicochemical
# reportedConditions: thermodynamic from solid; Water; 1 hr; pH 5.6
assayEndpoint: solubility at 1 hr (µg/mL)
Express it in µg/mL; write the number only.

Input line: Give solubility at 1 hr for O=C(c1cc(Cc2n[nH]c(=O)c3ccccc23)ccc1F)N1CCN(C(=O)C2CC2)CC1 [Compound 1 (Form A)]
Output line: 124

====

# assayText: Solubility in water and pH buffered solutions
# Assay type: physicochemical
# reportedConditions: aqueous buffer, thermodynamic from solid; 0.1M NaOH; 24 hr; pH 12.4
# Experimental: The solubility of crystalline Form A of Compound 1 was measured in water and a range of pH buffered solutions representing the physiological pH range. The physical form of any undissolved (or precipitated) Compound 1 was not assessed by XRPD after solubility determination. The Form A crystalline form of Compound 1 is disclosed in WO2008/047082.
assayEndpoint: solubility at 24 hr
Mention the unit after the number when you answer.

Input line: Identify the reported solubility at 24 hr for the following entry. O=C(c1cc(Cc2n[nH]c(=O)c3ccccc23)ccc1F)N1CCN(C(=O)C2CC2)CC1 [Compound 1 (Form A)]
Output line: 599 µg/mL

====

# assayText: Solubility in water and pH buffered solutions
# Assay type: physicochemical
# reportedConditions: aqueous buffer, thermodynamic from solid; pH 6.8 Phosphate Buffer; 1 hr; pH 6.9
assayEndpoint: solubility at 1 hr (mg/mL)
Write it as a number; the unit mg/mL goes unstated.

Input line: Dear colleague, please send me the reported solubility at 1 hr for O=C(c1cc(Cc2n[nH]c(=O)c3ccccc23)ccc1F)N1CCN(C(=O)C2CC2)CC1 [Compound 1 (Form A)] when you can.
Output line: 0.111
